B1: library; numbered along this chain (parent)
chain: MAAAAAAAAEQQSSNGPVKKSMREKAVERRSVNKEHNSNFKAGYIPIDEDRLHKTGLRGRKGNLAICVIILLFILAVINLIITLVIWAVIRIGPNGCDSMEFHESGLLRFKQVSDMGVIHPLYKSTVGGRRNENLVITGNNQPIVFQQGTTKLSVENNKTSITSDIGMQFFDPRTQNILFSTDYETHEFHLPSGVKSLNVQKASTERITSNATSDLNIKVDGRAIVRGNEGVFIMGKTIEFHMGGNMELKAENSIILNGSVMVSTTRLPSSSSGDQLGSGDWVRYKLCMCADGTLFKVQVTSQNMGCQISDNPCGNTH

- Variants of: B1
- Assay protocol: SGCB cell-surface expression functional score (HA stain, bin4 vs bin1, normalised to synonymous) (log10 ratio); higher = more cell-surface SGCB (functional)
Property measured: SGCB cell-surface expression functional score (log10)
The answer should be a number; do not append a unit.

Example results:
>  <Mutation name>
V261I

>  <Value>
0.29

$$$$
>  <Mutation name>
S154H

>  <Value>
-0.24

$$$$
>  <Mutation name>
T160M

>  <Value>
-1.02

$$$$
>  <Mutation name>
I86E

>  <Value>
-0.39

$$$$

Any idea what its SGCB cell-surface expression functional score (log10) is? The variant is S114G
-0.7

Follow-up entry: R284G
-0.11

Follow-up entry: G306C
-0.99

Follow-up entry: A26Q
0.19

Follow-up entry: L295H
-0.62

Follow-up entry: N157S
-0.08

Follow-up entry: V85P
-1.14

Follow-up entry: D183H
-0.33

Follow-up entry: T265A
0

Follow-up entry: E156C
0.01
